Ref: paper PMC6757289

- TESTED TARGET: SGK3 (Homo sapiens)
- ASSAY COMMENT: SGK3 degradation in HEK293 cells, immunoblot
- Assay type: cell-based
- Design: reduced endogenous SGK isoform or S6K1 expression when administered to HEK293 cells for 48 h; endogenous in cells; host or cells: HEK293
- DETAILS: HEK293, 48 h, 1 μM, Figure 2
MEASURED METRIC: remaining activity at 1 µM (%)

1 = Cc1ccc(F)c(S(=O)(=O)Nc2ccc(-c3nc(OC[C@H]4CN(CCOCCOCCOCC(=O)N[C@H](C(=O)N5C[C@H](O)C[C@H]5C(=O)NCc5ccc(-c6scnc6C)cc5)C(C)(C)C)CCO4)c4cn[nH]c4n3)cc2)c1
2 = Cc1ccc(F)c(S(=O)(=O)Nc2ccc(-c3nc(OC[C@H]4CN(CCCCCCOCCCCCCOCC(=O)N[C@H](C(=O)N5C[C@H](O)C[C@H]5C(=O)NCc5ccc(-c6scnc6C)cc5)C(C)(C)C)CCO4)c4cn[nH]c4n3)cc2)c1
3 = COc1ccc(Cl)c(S(=O)(=O)Nc2ccc(-c3nc(OC[C@H]4CN(CCCCCCOCCOCCOCCOCC(=O)N[C@H](C(=O)N5C[C@H](O)C[C@H]5C(=O)NCc5ccc(-c6scnc6C)cc5)C(C)(C)C)CCO4)c4c(C)n[nH]c4n3)cc2)c1
Input line: List the compounds shown above again, sorted by falling remaining activity at 1 µM values. In plain terms: list the labels in the order you were asked to.
Output line: 1, 3, 2

---

- TESTED TARGET: SGK3 (Homo sapiens)
- Sequence (Q96BR1 1-496): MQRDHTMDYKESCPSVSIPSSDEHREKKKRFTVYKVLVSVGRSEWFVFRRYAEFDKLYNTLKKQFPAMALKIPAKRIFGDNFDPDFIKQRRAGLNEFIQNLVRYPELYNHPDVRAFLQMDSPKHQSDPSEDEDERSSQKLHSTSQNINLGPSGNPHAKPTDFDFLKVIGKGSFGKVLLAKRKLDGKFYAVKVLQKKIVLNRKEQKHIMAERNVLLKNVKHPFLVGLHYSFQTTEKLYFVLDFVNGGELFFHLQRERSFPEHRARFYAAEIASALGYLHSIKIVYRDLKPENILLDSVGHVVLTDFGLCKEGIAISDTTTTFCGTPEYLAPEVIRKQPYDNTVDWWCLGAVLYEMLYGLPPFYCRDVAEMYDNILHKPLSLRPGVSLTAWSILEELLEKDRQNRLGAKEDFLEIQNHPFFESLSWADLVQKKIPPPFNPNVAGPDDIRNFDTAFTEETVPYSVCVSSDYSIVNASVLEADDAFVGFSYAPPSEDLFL
- ASSAY COMMENT: SGK3 degradation in HEK293 cells, immunoblot
- Type: cell-based
- Parameters: reduced endogenous SGK isoform or S6K1 expression when administered to HEK293 cells for 48 h; endogenous in cells; host or cells: HEK293
- DETAILS: HEK293, 48 h, 1 μM, Figure 2
MEASURED METRIC: remaining activity at 1 µM (%)

• Cc1ccc(F)c(S(=O)(=O)Nc2ccc(-c3nc(OC[C@H]4CN(CCCCCCOCCOCCOCC(=O)N[C@H](C(=O)N5C[C@H](O)C[C@H]5C(=O)NCc5ccc(-c6scnc6C)cc5)C(C)(C)C)CCO4)c4cn[nH]c4n3)cc2)c1 = 24
• Cc1ccc(F)c(S(=O)(=O)Nc2ccc(-c3nc(OC[C@H]4CN(CCOCCOCCOCCOCC(=O)N[C@H](C(=O)N5C[C@H](O)C[C@H]5C(=O)NCc5ccc(-c6scnc6C)cc5)C(C)(C)C)CCO4)c4cn[nH]c4n3)cc2)c1 = 44

1 = Cc1ccc(F)c(S(=O)(=O)Nc2ccc(-c3nc(OC[C@H]4CN(CCCCCCOCCOCCOCCOCC(=O)N[C@H](C(=O)N5C[C@H](O)C[C@H]5C(=O)NCc5ccc(-c6scnc6C)cc5)C(C)(C)C)CCO4)c4cn[nH]c4n3)cc2)c1
2 = Cc1ccc(F)c(S(=O)(=O)Nc2ccc(-c3nc(OC[C@H]4CN(CCOCCOCCOCCOCCOCC(=O)N[C@H](C(=O)N5C[C@H](O)C[C@H]5C(=O)NCc5ccc(-c6scnc6C)cc5)C(C)(C)C)CCO4)c4cn[nH]c4n3)cc2)c1
Input line: For the two items 1 and 2 , which reports the higher remaining activity at 1 µM value? Please indicate the selected item by its label.
Output line: 2
